What relative viability was measured for each of the following?
Test system: HCC-15
measurementDescription: relative viability (nuclei count vs DMSO), 5 days (fraction); higher = more cells survive
statedConditions: first compound 0.1 µM
Enter the number alone.

Which relative viability is listed for Cc1cn(-c2cc(NC(=O)c3ccc(C)c(Nc4nccc(-c5cccnc5)n4)c3)cc(C(F)(F)F)c2)cn1 [Nilotinib] + Nc1nc2[nH]cc(CCc3ccc(C(=O)N[C@@H](CCC(=O)O)C(=O)O)cc3)c2c(=O)[nH]1 [Pemetrexed] (partner 0.2 µM) ?
0.162

Given Cc1cn(-c2cc(NC(=O)c3ccc(C)c(Nc4nccc(-c5cccnc5)n4)c3)cc(C(F)(F)F)c2)cn1 [Nilotinib] + O=C(c1cc(Cc2n[nH]c(=O)c3ccccc23)ccc1F)N1CCN(C(=O)C2CC2)CC1 [Olaparib] (partner 8 µM) , state its recorded relative viability.
0.638

---

System: NCI-H1355
measurementDescription: relative viability (nuclei count vs DMSO), 5 days (fraction); higher = more cells survive
statedConditions: first compound 0.2 µM
quantityName: relative viability
Please respond with just the number, no unit label.

Field request: relative viability | item: Cc1csc(=NC2CCCCC2)n1/N=C/c1ccc(O)c(O)c1O [MIM1] + Cc1nc(NC(=O)N2CCC[C@H]2C(N)=O)sc1-c1ccnc(C(C)(C)C(F)(F)F)c1 [Alpelisib] (partner 2 µM)
0.89

So what does the record say about relative viability for CCNC(=O)c1noc(-c2cc(C(C)C)c(O)cc2O)c1-c1ccc(CN2CCOCC2)cc1 [Luminespib] + CS(=O)(=O)N1CCN(Cc2cc3nc(-c4cccc5[nH]ncc45)nc(N4CCOCC4)c3s2)CC1 [Pictilisib] (partner 1 µM) ?
0.152

Look at this compound and give its reported relative viability. CN1CCN(CCOc2cc(OC3CCOCC3)c3c(Nc4c(Cl)ccc5c4OCO5)ncnc3c2)CC1 [Saracatinib] + O=C(CCCCCCC(=O)Nc1ccccc1)NO [Vorinostat] (partner 1 µM)
0.62

Could you share which relative viability value was measured for CN1CCN(CCOc2cc(OC3CCOCC3)c3c(Nc4c(Cl)ccc5c4OCO5)ncnc3c2)CC1 [Saracatinib] + Nc1nc2[nH]cc(CCc3ccc(C(=O)N[C@@H](CCC(=O)O)C(=O)O)cc3)c2c(=O)[nH]1 [Pemetrexed] (partner 0.2 µM) ?
1.02

---

Tested on: NCI-H596
measurementDescription: relative viability (nuclei count vs DMSO), 5 days (fraction); higher = more cells survive
statedConditions: first compound 0.006325 µM
Just a reminder that ties go to 0.0: only relative viability strictly below 0.7 counts as 1.0.

Dear reviewer, please state whether CCNC(=O)c1noc(-c2cc(C(C)C)c(O)cc2O)c1-c1ccc(CN2CCOCC2)cc1 [Luminespib] + COc1cc2c(Oc3ccc(NC(=O)C4(C(=O)Nc5ccc(F)cc5)CC4)cc3F)ccnc2cc1OCCCN1CCOCC1 [Foretinib] (partner 0.25 µM) has relative viability strictly beneath 0.7.
0.0

Say whether its relative viability is strictly beneath 0.7. Entry: CCNC(=O)c1noc(-c2cc(C(C)C)c(O)cc2O)c1-c1ccc(CN2CCOCC2)cc1 [Luminespib] + CC(C)C[C@H](NC(=O)[C@H](Cc1ccccc1)NC(=O)c1cnccn1)B(O)O [Bortezomib] (partner 0.002 µM)
0.0

Lab note: relative viability threshold 0.7. Does this molecule come in strictly under it? CCNC(=O)c1noc(-c2cc(C(C)C)c(O)cc2O)c1-c1ccc(CN2CCOCC2)cc1 [Luminespib] + CS(=O)(=O)N1CCN(Cc2cc3nc(-c4cccc5[nH]ncc45)nc(N4CCOCC4)c3s2)CC1 [Pictilisib] (partner 1 µM)
1.0

Here's an entry: CCNC(=O)c1noc(-c2cc(C(C)C)c(O)cc2O)c1-c1ccc(CN2CCOCC2)cc1 [Luminespib] + Cc1nc(Nc2ncc(C(=O)Nc3c(C)cccc3Cl)s2)cc(N2CCN(CCO)CC2)n1 [Dasatinib] (partner 0.075 µM) . Is its relative viability below 0.7?
1.0

Consider CCNC(=O)c1noc(-c2cc(C(C)C)c(O)cc2O)c1-c1ccc(CN2CCOCC2)cc1 [Luminespib] + NC(=O)Nc1cc(-c2cccc(F)c2)sc1C(=O)N[C@H]1CCCNC1 [AZD7762] (partner 0.2 µM) . Does its relative viability lie strictly below 0.7?
0.0

Please state whether relative viability is below 0.7 for CCNC(=O)c1noc(-c2cc(C(C)C)c(O)cc2O)c1-c1ccc(CN2CCOCC2)cc1 [Luminespib] + C[C@]1(O)C[C@@H](c2nc(-c3ccc4ccc(-c5ccccc5)nc4c3)c3c(N)nccn32)C1 [Linsitinib] (partner 1 µM)
0.0

Decide: relative viability of CCNC(=O)c1noc(-c2cc(C(C)C)c(O)cc2O)c1-c1ccc(CN2CCOCC2)cc1 [Luminespib] + C[C@@H](Oc1cc(-c2cnn(C3CCNCC3)c2)cnc1N)c1c(Cl)ccc(F)c1Cl [Crizotinib] (partner 1 µM) strictly below 0.7?
0.0

---

Tested on: LU99A
measurementDescription: relative viability (nuclei count vs DMSO), 5 days (fraction); higher = more cells survive
statedConditions: first compound 0.6325 µM
Give measured relative viability for each item. Keep answers brief.
The response must contain the number and no unit.

Please report the recorded relative viability for Cc1csc(=NC2CCCCC2)n1/N=C/c1ccc(O)c(O)c1O [MIM1] + Cc1cc(Nc2cc(N3CCN(C)CC3)nc(Sc3ccc(NC(=O)C4CC4)cc3)n2)n[nH]1 [Tozasertib] (partner 0.1 µM) .
0.274

Consider the compound Cc1csc(=NC2CCCCC2)n1/N=C/c1ccc(O)c(O)c1O [MIM1] + NC(=O)Nc1cc(-c2cccc(F)c2)sc1C(=O)N[C@H]1CCCNC1 [AZD7762] (partner 0.2 µM) and give its measured relative viability.
0.265

Suppose we examine the compound CN1CCN(CCOc2cc(OC3CCOCC3)c3c(Nc4c(Cl)ccc5c4OCO5)ncnc3c2)CC1 [Saracatinib] + C[C@@H](Oc1cc(-c2cnn(C3CCNCC3)c2)cnc1N)c1c(Cl)ccc(F)c1Cl [Crizotinib] (partner 1 µM) ; what relative viability value has been reported?
0.487

---

Task for the reader: assign each of the following molecules its reported relative viability.
Tested on: NCI-H2087
measurementDescription: relative viability (nuclei count vs DMSO), 5 days (fraction); higher = more cells survive
statedConditions: first compound 2 µM
Lab note: jot down the number only; don't add units.

Name the reported relative viability value associated with the molecule CN1CCN(CCOc2cc(OC3CCOCC3)c3c(Nc4c(Cl)ccc5c4OCO5)ncnc3c2)CC1 [Saracatinib] + Cc1nc(NC(=O)N2CCC[C@H]2C(N)=O)sc1-c1ccnc(C(C)(C)C(F)(F)F)c1 [Alpelisib] (partner 2 µM)
1.04

// returns reported relative viability for input Cc1csc(=NC2CCCCC2)n1/N=C/c1ccc(O)c(O)c1O [MIM1] + CS(=O)(=O)CCNCc1ccc(-c2ccc3ncnc(Nc4ccc(OCc5cccc(F)c5)c(Cl)c4)c3c2)o1 [Lapatinib] (partner 2 µM)
0.998

What measured relative viability goes with Cc1csc(=NC2CCCCC2)n1/N=C/c1ccc(O)c(O)c1O [MIM1] + Cc1nc(NC(=O)N2CCC[C@H]2C(N)=O)sc1-c1ccnc(C(C)(C)C(F)(F)F)c1 [Alpelisib] (partner 2 µM) ?
1.06

Could you tell me which relative viability is on file for CN1CCN(CCOc2cc(OC3CCOCC3)c3c(Nc4c(Cl)ccc5c4OCO5)ncnc3c2)CC1 [Saracatinib] + CCNC(=O)c1noc(-c2cc(C(C)C)c(O)cc2O)c1-c1ccc(CN2CCOCC2)cc1 [Luminespib] (partner 0.01 µM) ?
0.253

---

Kindly state relative viability for each of the entries shown.
Tested on: NCI-H596
measurementDescription: relative viability (nuclei count vs DMSO), 5 days (fraction); higher = more cells survive
statedConditions: first compound 0.2 µM

GET /values?readout=relative viability&item= CCNC(=O)c1noc(-c2cc(C(C)C)c(O)cc2O)c1-c1ccc(CN2CCOCC2)cc1 [Luminespib] + C[C@]1(O)C[C@@H](c2nc(-c3ccc4ccc(-c5ccccc5)nc4c3)c3c(N)nccn32)C1 [Linsitinib] (partner 1 µM)
0.907

Quick one: relative viability of Cc1csc(=NC2CCCCC2)n1/N=C/c1ccc(O)c(O)c1O [MIM1] + Cc1cc(Nc2cc(N3CCN(C)CC3)nc(Sc3ccc(NC(=O)C4CC4)cc3)n2)n[nH]1 [Tozasertib] (partner 0.1 µM) ?
0.929

Value lookup for relative viability; key = CN1CCN(CCOc2cc(OC3CCOCC3)c3c(Nc4c(Cl)ccc5c4OCO5)ncnc3c2)CC1 [Saracatinib] + Cc1cc(Nc2cc(N3CCN(C)CC3)nc(Sc3ccc(NC(=O)C4CC4)cc3)n2)n[nH]1 [Tozasertib] (partner 0.1 µM)
0.847

Item under review: Cc1csc(=NC2CCCCC2)n1/N=C/c1ccc(O)c(O)c1O [MIM1] + CS(=O)(=O)CCNCc1ccc(-c2ccc3ncnc(Nc4ccc(OCc5cccc(F)c5)c(Cl)c4)c3c2)o1 [Lapatinib] (partner 2 µM) . Reported relative viability?
1.13
